The origin of these recorded values is patent US10329286B2.

Target: FXR ligand binding domain (Homo sapiens (Human), UniProt Q96RI1)
Experiment: Mammalian one hybrid (M1H) Gal4 reporter gene assay in HEK293 cells
Format: cell-based
readout_kind: EC50 (nM)
State the answer as a number, implicitly in nM.

State its EC50 on FXR ligand binding domain (Homo sapiens (Human), UniProt Q96RI1): O=C(O)c1ccnc(N2CC(O)(c3ccc(OCc4c(-c5c(Cl)cccc5Cl)noc4C4CC4)cc3Cl)C2)c1 [Comparative Compound 1, reference compound] 774

----------
Biological target: human FXR alpha ligand binding domain (Homo sapiens (Human), UniProt Q96RI1)
Sequence (Q96RI1 other isoform, or with tags, fused parts or gaps): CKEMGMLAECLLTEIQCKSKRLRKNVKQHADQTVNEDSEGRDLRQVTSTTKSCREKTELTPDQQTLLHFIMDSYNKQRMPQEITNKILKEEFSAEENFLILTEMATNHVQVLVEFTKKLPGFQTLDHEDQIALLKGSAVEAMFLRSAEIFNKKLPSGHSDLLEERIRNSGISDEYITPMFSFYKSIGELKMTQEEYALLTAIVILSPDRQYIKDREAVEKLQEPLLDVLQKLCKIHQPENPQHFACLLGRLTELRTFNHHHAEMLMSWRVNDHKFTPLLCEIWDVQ
Test: FRET activity assay (LANCE; ligand mediated FXR-LBD / SRC-1 cofactor peptide interaction)
Type: biochemical
readout_kind: EC50

Dear colleague, I am looking for the recorded EC50 of the following compound: O=C(O)c1ccnc(N2CC(O)(c3ccc(OCc4c(-c5c(Cl)cccc5Cl)noc4C4CC4)cc3Cl)C2)c1 [Comparative Compound 1, reference compound] 14 nM

----------
Target: human FXR alpha ligand binding domain (Homo sapiens (Human), UniProt Q96RI1)
Experiment: FRET activity assay (LANCE; ligand mediated FXR-LBD / SRC-1 cofactor peptide interaction)
Type: biochemical
Conditions: GST-FXR-LBD, biotinylated SRC-1 peptide 676-700; read-out: FRET EC50
readout_kind: EC50 (nM)
Field: numeric (nM). Do not append units.

Recorded EC50 for O=C(O)c1cc(N2CC(O)(c3ccc(OCc4c(-c5c(Cl)cccc5Cl)noc4C4CC4)cc3Cl)C2)nc(C(F)(F)F)c1 [Comparative Compound 3, reference compound] with human FXR alpha ligand binding domain (Homo sapiens (Human), UniProt Q96RI1), please? 47

Queued: O=C(O)c1cnc(N2CC(O)(c3ccc(OCc4c(-c5c(Cl)cccc5Cl)noc4C4CC4)cc3Cl)C2)c(F)c1 [Example 5] 4.8

Next entry: O=C(O)c1cnc(N2CC(O)(c3ccc(OCc4c(-c5c(Cl)cncc5Cl)noc4C4CC4)cc3Cl)C2)c(F)c1 [Example 10] 3.4

----------
Biological target: FXR ligand binding domain (Homo sapiens (Human), UniProt Q96RI1)
Assay: Mammalian one hybrid (M1H) Gal4 reporter gene assay in HEK293 cells
Format: cell-based
Settings: Gal4-FXR-LBD luciferase reporter, HEK293 cells, 16 h; read-out: M1H EC50
pEC50: −log10 of the molar value.
Give Fulfilled when the value for pEC50 is at least 8. Give Not fulfilled when it is less.

Does pEC50 meet or surpass 8 for Cc1cc(Cl)c(-c2noc(C3CC3)c2COc2ccc(C3(O)CN(c4ncc(C(=O)O)cc4F)C3)c(Cl)c2)c(Cl)c1 ? Not fulfilled

// same read-out, input: Cc1cc(C(=O)O)cnc1N1CC(O)(c2ccc(OCc3c(-c4c(Cl)cccc4Cl)noc3C3CC3)cc2Cl)C1 Fulfilled

Continue with O=C(O)c1cnc(N2CC(O)(c3ccc(OCc4c(C5CC5)cnn4-c4c(Cl)cccc4Cl)cc3Cl)C2)c(F)c1 Fulfilled

Then this compound: O=C(O)c1cnc(N2CC(O)(c3ccc(OCc4c(-c5c(Cl)cccc5Cl)noc4C4CC4)cc3Cl)C2)c(F)c1 Fulfilled

----------
Biological target: FXR ligand binding domain (Homo sapiens (Human), UniProt Q96RI1)
Experiment: Mammalian one hybrid (M1H) Gal4 reporter gene assay in HEK293 cells
Type: cell-based
Settings: Gal4-FXR-LBD luciferase reporter, HEK293 cells, 16 h; read-out: M1H EC50
Kindly supply the reported EC50 values for the records listed here.
Give the number; nM is assumed, so skip it.

Give the measured EC50 of O=C(O)c1cnc(N2CC(O)(c3ccc(OCc4c(-c5c(Cl)cncc5Cl)noc4C4CC4)cc3Cl)C2)c(F)c1 . 6.4

// same read-out, input: Cc1cc(N2CC(O)(c3ccc(OCc4c(-c5c(Cl)cccc5Cl)noc4C4CC4)cc3Cl)C2)ncc1C(=O)O 6.7

Here is the next compound: O=C(O)c1ccc(N2CC(O)(c3ccc(OCc4c(-c5c(Cl)cccc5Cl)noc4C4CC4)cc3Cl)C2)nc1 7.1
